FYI, the data here is from PubChem BioAssay (NCI).

- methodNotes: NCI Yeast Anticancer Drug Screen. Data for the mlh1 rad18 strain (AID 175)
- measurementContext: S. cerevisiae mlh1 rad18 strain growth inhibition, active compounds read high; at 50.0 µM unless noted
The panel holds about 79,000 compounds, 15% with a hit somewhere; the sample as a whole holds those more often.
observedProperty: growth inhibition (%)
Express it in %; write the number only.

Lab book: growth inhibition of OC(c1ccc(OCc2ccccc2)cc1)c1ccccn1 (configuration not stated) noted as -0.3

Sample COc1ccc(C(=O)/C=C/N)c(OC)c1 ; growth inhibition observed: 10.9

----------
- methodNotes: NCI Yeast Anticancer Drug Screen. Data for the sgs1 mgt1 strain (AID 161);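 further: 0% = growth of cultures given vehicle only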
- measurementContext: S. cerevisiae sgs1 mgt1 strain, active compounds read high; at 50.0 µM unless noted
- Experimental: Growth inhibition of yeast strains with defined genetic alterations is measured as a screen for potential anti-cancer activity. Selected strains with alterations in DNA damage repair or cell cycle control were exposed to compounds and growth inhibition was measured relative to vehicle treated controls. The strain used in this assay is sgs1 mgt1
The panel holds about 79,000 compounds, 15% with a hit somewhere; the sample as a whole holds those more often.
Param threshold (10%) applies to growth inhibition; output True when value >= threshold, False when value < threshold.

Reference set (4 entries):
>  <compound>
CC(Oc1ccccc1)C(=O)NC(=S)Nc1cccc2ccccc12 (configuration not stated)

>  <qualitativeLabel>
False

$$$$
>  <compound>
CC(=O)c1ccc2c(c1)sc1ccccc12

>  <qualitativeLabel>
False

$$$$
>  <compound>
O=C1c2ccccc2C(=O)N1CCCCCCCCCCN1C(=O)c2ccccc2C1=O

>  <qualitativeLabel>
True

$$$$
>  <compound>
O=[N+]([O-])c1ccccc1/C=C/c1ccccn1

>  <qualitativeLabel>
False

$$$$

**Query** Please indicate if the recorded growth inhibition for C(/C=N/Nc1ccccc1)=N\Nc1ccccc1 meets or exceeds 10%.
**Result** False

**Query** Hello, I need to know if c1c[nH]c(CN2CCOCC2)n1 has measured growth inhibition not below 10%. Thanks!
**Result** False

**Query** Say whether CC1=NN(C(=O)Cc2ccccc2)C(=O)/C1=C\c1ccc(O)cc1 shows growth inhibition of 10% or more.
**Result** False

**Query** Decide: growth inhibition of C/C=C/C(=O)Nc1cccc(OC(=O)NC(C)(C)C)c1 >= 10%?
**Result** False

**Query** Does the compound C=C(c1ccccc1)C1ON(C)CCc2cc(OC)c(OC)cc21 (configuration not stated) have recorded growth inhibition that is 10% or more?
**Result** True

**Query** I'd appreciate it if you could say whether ClCc1ccccc1C(c1ccccc1)c1ccccc1 has growth inhibition at least equal to 10%.
**Result** False
